Activity values by entry
Tested on: Oocyte
Assay: Modulation of human recombinant GABA-A alpha5beta2gamma2L receptor expressed in Xenopus laevis oocytes assessed as effect on GABA-induced chloride current at 10 uM incubated 60 seconds before addition of GABA measured after 30 seconds at holding potential -70 mV by two-microelectrode voltage clamp technique relative to control
Format: cell-based
observation-type: Activity (%)

{"molecule-smiles": "CCOC(=O)c1ncn2c1CN=C(c1ccc(F)cc1)c1cc(F)ccc1-2", "assay-target": "Oocyte", "observation-type": "Activity", "value-reported": -16}
{"molecule-smiles": "CCOC(=O)c1ncn2c1CN=C(c1ccc(Cl)cc1)c1ccccc1-2", "assay-target": "Oocyte", "observation-type": "Activity", "value-reported": 0}
{"molecule-smiles": "CCOC(=O)c1ncn2c1CN=C(c1cccc([N+](=O)[O-])c1)c1cc(F)ccc1-2", "assay-target": "Oocyte", "observation-type": "Activity", "value-reported": -2.5}
{"molecule-smiles": "CCOC(=O)c1ncn2c1CN=C(c1ccc(C)cc1)c1ccccc1-2", "assay-target": "Oocyte", "observation-type": "Activity", "value-reported": -22}
